# TESTED SYSTEM: IGF-1R (Homo sapiens (Human), UniProt P08069)
# Sequence (P08069 31-1367, species assumed): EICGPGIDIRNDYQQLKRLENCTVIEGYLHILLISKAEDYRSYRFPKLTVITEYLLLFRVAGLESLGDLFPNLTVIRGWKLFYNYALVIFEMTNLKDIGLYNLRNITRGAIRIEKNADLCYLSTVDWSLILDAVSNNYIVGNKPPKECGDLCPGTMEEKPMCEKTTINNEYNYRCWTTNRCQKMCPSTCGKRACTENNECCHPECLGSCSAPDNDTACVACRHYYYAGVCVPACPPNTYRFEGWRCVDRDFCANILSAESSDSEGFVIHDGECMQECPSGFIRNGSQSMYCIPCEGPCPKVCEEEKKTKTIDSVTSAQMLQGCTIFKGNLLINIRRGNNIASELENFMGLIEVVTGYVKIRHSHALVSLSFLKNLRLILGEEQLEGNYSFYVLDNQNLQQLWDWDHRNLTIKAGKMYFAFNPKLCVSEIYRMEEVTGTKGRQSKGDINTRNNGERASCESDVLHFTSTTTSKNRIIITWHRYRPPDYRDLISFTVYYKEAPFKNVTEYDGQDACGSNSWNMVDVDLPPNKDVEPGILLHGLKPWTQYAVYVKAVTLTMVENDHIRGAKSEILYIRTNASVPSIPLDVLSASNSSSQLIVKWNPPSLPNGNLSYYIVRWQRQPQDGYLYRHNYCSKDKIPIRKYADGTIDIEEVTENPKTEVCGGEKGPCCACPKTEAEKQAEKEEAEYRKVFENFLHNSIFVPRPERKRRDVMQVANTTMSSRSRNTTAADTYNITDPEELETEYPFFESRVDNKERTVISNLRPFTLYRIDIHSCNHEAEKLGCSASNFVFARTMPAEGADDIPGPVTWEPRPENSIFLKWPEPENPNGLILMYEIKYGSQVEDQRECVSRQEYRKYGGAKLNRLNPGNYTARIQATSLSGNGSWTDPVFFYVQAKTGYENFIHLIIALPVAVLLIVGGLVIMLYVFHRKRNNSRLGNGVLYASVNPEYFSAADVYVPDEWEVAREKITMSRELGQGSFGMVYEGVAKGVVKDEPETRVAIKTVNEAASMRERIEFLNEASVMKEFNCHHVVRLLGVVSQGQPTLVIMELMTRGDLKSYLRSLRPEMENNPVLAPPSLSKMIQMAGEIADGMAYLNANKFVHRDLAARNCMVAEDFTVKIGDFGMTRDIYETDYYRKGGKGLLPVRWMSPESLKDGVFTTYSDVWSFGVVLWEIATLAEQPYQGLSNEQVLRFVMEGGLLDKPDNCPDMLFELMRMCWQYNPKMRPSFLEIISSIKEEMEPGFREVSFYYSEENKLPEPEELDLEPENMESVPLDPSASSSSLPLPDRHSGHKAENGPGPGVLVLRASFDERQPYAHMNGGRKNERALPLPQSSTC
# ASSAY PROCEDURE: Example B-2: IGF-1R Assay (PathHunter cell lines, EC80 agonist challenge)
# Format: cell-based
# MEASUREMENT CONTEXT: read-out: IC50 (Biological Activity against IGF-1R)
PARAMETER MEASURED: IC50

Q. Data request, read-out IC50, for c1ccc2ncc(Nc3ccnc(Nc4ccc5ccn(CC6CCCCC6)c5c4)n3)cc2c1
A. 2000 to 10000 nM

Q. Next entry: CN(C)CC(=O)N1CCOc2ccc(Nc3nccc(Nc4cnc5cc(F)c(F)cc5c4)n3)cc21
A. ≤ 500 nM

Q. Next entry: CN(C)CC(=O)N1CCc2ncc(Nc3nccc(Nc4cnc5ccc(Cl)cc5c4)n3)cc21
A. ≤ 500 nM

Q. Next entry: CN(C)CC1COc2ccc(Nc3nccc(Nc4cnc5ccccc5c4)n3)cc2O1 (centres unmarked)
A. ≤ 500 nM

Q. Next entry: CN1CC(N2CCc3ccc(Nc4nccc(Nc5cnc6ccccc6c5)n4)cc32)C1
A. ≤ 500 nM

Q. Next entry: CN1CCOc2ccc(Nc3nccc(Nc4cnc5cc(F)c(F)cc5c4)n3)cc21
A. 500 to 2000 nM

Q. Next entry: COc1cc(Nc2nccc(Nc3cnc4ccc(C(F)F)cc4c3)n2)ccc1O[C@H]1C[C@H](N(C)C)C1
A. 500 to 2000 nM

Q. Next entry: CN(C)CC1CN(C)c2cc(Nc3nccc(Nc4cnc5cc(F)c(F)cc5c4)n3)ccc2O1 (centres unmarked)
A. ≤ 500 nM
